Reported viscosity values are given for each entry in this list.
- Experimental Parameters: 353.15 K; 101.33 kPa; Liquid; Concentric cylinders viscometry
Measured Metric: viscosity (mPa·s)

> print(dat)
                                   compound  quantitative.result
1  CCCCCCCCCCCCCC[P+](CCCCCC)(CCCCCC)CCCCCC.FC(F)(F)C(F)(F)[P-](F)(F)(F)(C(F)(F)C(F)(F)F)C(F)(F)C(F)(F)F                31.27
2  CCCCn1cc[n+](C)c1C.O=S(=O)([N-]S(=O)(=O)C(F)(F)F)C(F)(F)F                 13.9
3  CCCC[N+]1(C)CCCC1.FC(F)(F)C(F)(F)[P-](F)(F)(F)(C(F)(F)C(F)(F)F)C(F)(F)C(F)(F)F                21.79
4  CCCC[N+]1(C)CCCC1.O=S(=O)([O-])C(F)(F)F [1-butyl-1-methylpyrrolidinium trifluoromethanesulfonate]                   21
5  CCOS(=O)(=O)[O-].CCn1cc[n+](C)c1 [1-ethyl-3-methylimidazolium ethyl sulfate]                14.68
6  CCCCCCOS(=O)(=O)[O-].CC[n+]1ccn(C)c1 [3-ethyl-1-methyl-1H-imidazolium hexyl sulfate]                   29
7  COCC[N+]1(C)CCCC1.O=S(=O)([N-]S(=O)(=O)C(F)(F)F)C(F)(F)F                10.66
8  CCCC[N+]1(C)CCCC1.O=S(=O)([N-]S(=O)(=O)C(F)(F)F)C(F)(F)F                12.87

---

- Experimental Parameters: 328.15 K; 101.33 kPa; Liquid; Concentric cylinders viscometry
Label YES when viscosity is at or above 50 mPa·s; anything below gets NO.

> print(dat)
                                   compound  category
1  CCCCCCCCCCCCCC[P+](CCCCCC)(CCCCCC)CCCCCC.FC(F)(F)C(F)(F)[P-](F)(F)(F)(C(F)(F)C(F)(F)F)C(F)(F)C(F)(F)F       YES
2  CCCC[N+]1(C)CCCC1.O=S(=O)([N-]S(=O)(=O)C(F)(F)F)C(F)(F)F        NO
3  COCC[N+]1(C)CCCC1.O=S(=O)([N-]S(=O)(=O)C(F)(F)F)C(F)(F)F        NO
4  CCCCn1cc[n+](C)c1C.O=S(=O)([N-]S(=O)(=O)C(F)(F)F)C(F)(F)F        NO
5  CCCC[N+]1(C)CCCC1.O=S(=O)([O-])C(F)(F)F [1-butyl-1-methylpyrrolidinium trifluoromethanesulfonate]        NO
6  CCOS(=O)(=O)[O-].CCn1cc[n+](C)c1 [1-ethyl-3-methylimidazolium ethyl sulfate]        NO
7  CCCCCCOS(=O)(=O)[O-].CC[n+]1ccn(C)c1 [3-ethyl-1-methyl-1H-imidazolium hexyl sulfate]       YES

---

Overview of recorded mass density for various compounds
- Experimental Parameters: 268.15 K; 101.33 kPa; Liquid; Vibrating tube method
Measured Metric: mass density (kg/m3)

> print(dat)
                                   compound  measured.metric  quantitative.result
1  CCCCCCOS(=O)(=O)[O-].CC[n+]1ccn(C)c1 [3-ethyl-1-methyl-1H-imidazolium hexyl sulfate]     mass density               1151.4
2  CCCCCCCCCCCCCC[P+](CCCCCC)(CCCCCC)CCCCCC.FC(F)(F)C(F)(F)[P-](F)(F)(F)(C(F)(F)C(F)(F)F)C(F)(F)C(F)(F)F     mass density               1207.4
3  CCOS(=O)(=O)[O-].CCn1cc[n+](C)c1 [1-ethyl-3-methylimidazolium ethyl sulfate]     mass density               1259.5
4  COCC[N+]1(C)CCCC1.O=S(=O)([N-]S(=O)(=O)C(F)(F)F)C(F)(F)F     mass density               1483.6

---

mass density listing for selected compounds.
- Experimental Parameters: 353.15 K; 101.33 kPa; Liquid; Vibrating tube method
Numbers after ± are expanded uncertainties.
Measured Metric: mass density

> print(dat)
                                   compound              result
1  CCCC[N+]1(C)CCCC1.O=S(=O)([O-])C(F)(F)F [1-butyl-1-methylpyrrolidinium trifluoromethanesulfonate]  1213.3 ± 1.6 kg/m3
2  CCCCn1cc[n+](C)c1C.O=S(=O)([N-]S(=O)(=O)C(F)(F)F)C(F)(F)F  1369.3 ± 1.8 kg/m3
3  CCCCCCCCCCCCCC[P+](CCCCCC)(CCCCCC)CCCCCC.FC(F)(F)C(F)(F)[P-](F)(F)(F)(C(F)(F)C(F)(F)F)C(F)(F)C(F)(F)F    1137 ± 1.4 kg/m3
4  COCC[N+]1(C)CCCC1.O=S(=O)([N-]S(=O)(=O)C(F)(F)F)C(F)(F)F  1403.3 ± 1.9 kg/m3
5  CCCC[N+]1(C)CCCC1.O=S(=O)([N-]S(=O)(=O)C(F)(F)F)C(F)(F)F  1346.9 ± 1.8 kg/m3
6  CCCC[N+]1(C)CCCC1.FC(F)(F)C(F)(F)[P-](F)(F)(F)(C(F)(F)C(F)(F)F)C(F)(F)C(F)(F)F  1525.7 ± 2.2 kg/m3
7  CCCCCCOS(=O)(=O)[O-].CC[n+]1ccn(C)c1 [3-ethyl-1-methyl-1H-imidazolium hexyl sulfate]  1094.5 ± 1.4 kg/m3
8  CCOS(=O)(=O)[O-].CCn1cc[n+](C)c1 [1-ethyl-3-methylimidazolium ethyl sulfate]  1200.4 ± 1.5 kg/m3

---

- Experimental Parameters: 318.15 K; 101.33 kPa; Liquid; Vibrating tube method
List of mass density values.
Measured Metric: mass density (kg/m3)

> print(dat)
                                   molecule  measured.metric  quantitative.result
1  COCC[N+]1(C)CCCC1.O=S(=O)([N-]S(=O)(=O)C(F)(F)F)C(F)(F)F     mass density               1435.9
2  CCCCCCOS(=O)(=O)[O-].CC[n+]1ccn(C)c1 [3-ethyl-1-methyl-1H-imidazolium hexyl sulfate]     mass density               1117.2
3  CCOS(=O)(=O)[O-].CCn1cc[n+](C)c1 [1-ethyl-3-methylimidazolium ethyl sulfate]     mass density               1224.2
4  CCCC[N+]1(C)CCCC1.O=S(=O)([O-])C(F)(F)F [1-butyl-1-methylpyrrolidinium trifluoromethanesulfonate]     mass density                 1238

---

viscosity overview
- Experimental Parameters: 358.15 K; 101.33 kPa; Liquid; Concentric cylinders viscometry
Measured Metric: viscosity (mPa·s)

> print(dat)
                                   molecule  unit.abbreviation  quantitative.result
1  CCCCCCOS(=O)(=O)[O-].CC[n+]1ccn(C)c1 [3-ethyl-1-methyl-1H-imidazolium hexyl sulfate]              mPa·s                25.04
2  CCCC[N+]1(C)CCCC1.O=S(=O)([O-])C(F)(F)F [1-butyl-1-methylpyrrolidinium trifluoromethanesulfonate]              mPa·s                18.44
3  CCOS(=O)(=O)[O-].CCn1cc[n+](C)c1 [1-ethyl-3-methylimidazolium ethyl sulfate]              mPa·s                13.06
4  CCCCn1cc[n+](C)c1C.O=S(=O)([N-]S(=O)(=O)C(F)(F)F)C(F)(F)F              mPa·s                 12.3
5  COCC[N+]1(C)CCCC1.O=S(=O)([N-]S(=O)(=O)C(F)(F)F)C(F)(F)F              mPa·s                9.617
6  CCCC[N+]1(C)CCCC1.O=S(=O)([N-]S(=O)(=O)C(F)(F)F)C(F)(F)F              mPa·s                 11.5
7  CCCCCCCCCCCCCC[P+](CCCCCC)(CCCCCC)CCCCCC.FC(F)(F)C(F)(F)[P-](F)(F)(F)(C(F)(F)C(F)(F)F)C(F)(F)C(F)(F)F              mPa·s                26.79
8  CCCC[N+]1(C)CCCC1.FC(F)(F)C(F)(F)[P-](F)(F)(F)(C(F)(F)C(F)(F)F)C(F)(F)C(F)(F)F              mPa·s                18.97
